TARGET SYSTEM: ETS1 (UniProt P14921)
Sequence: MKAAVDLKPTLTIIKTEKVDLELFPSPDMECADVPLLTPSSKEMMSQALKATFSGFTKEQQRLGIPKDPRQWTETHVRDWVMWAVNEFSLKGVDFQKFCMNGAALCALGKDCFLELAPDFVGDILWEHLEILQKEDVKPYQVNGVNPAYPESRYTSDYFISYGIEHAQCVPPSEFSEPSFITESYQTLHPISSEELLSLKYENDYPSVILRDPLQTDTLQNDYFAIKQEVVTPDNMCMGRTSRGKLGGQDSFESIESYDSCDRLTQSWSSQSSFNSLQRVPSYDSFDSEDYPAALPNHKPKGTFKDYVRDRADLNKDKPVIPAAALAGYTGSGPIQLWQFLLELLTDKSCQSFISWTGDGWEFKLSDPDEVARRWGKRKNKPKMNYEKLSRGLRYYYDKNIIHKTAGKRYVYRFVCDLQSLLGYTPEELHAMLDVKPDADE
PROTOCOL DETAILS: ETS1 binding intensity (PBM fluorescence), ETS1 alone (arbitrary fluorescence units); higher = stronger binding
EXPERIMENTAL CONTEXT: ETS1 concentration 1 nM; RUNX1 concentration 0 nM
Listing: ETS1 binding intensity of selected sequences
Response field accepts a number only; no unit should be typed.

SEQUENCE CODE	TEST RESULT
CGGGCCCGACGGAAACCATGTTTGTGGCTCGCAGCA	744
GTCAGGGGAACAGGATGTGGGTGGGAGCCAGCCCCA	4250
ACAGTTTCCTTGCTGTGATGTCAGCCCCCGCCGCAG	709
GAGTTCCGCCTCGCCGTTTGTCCCTTGCGGTACCCG	351
GCTTGTCTTCCGGTTTCGTCGCCGCCGCAGGCGCAC	1730

Query: Value lookup for ETS1 binding intensity; key = CACTTCCTGTCAAAGCCAGTTCCTTAACCGCTTAGG
Reply: 1610

Query: Any idea what ETS1 binding intensity was measured for GAGTACAGGAAATGCAAAGTAAAACCACAGTGAGAT ?
Reply: 1460
